Would you kindly list CC50 at 48 h for each of these compounds?
assay: Cytotoxicity against human HepG2 cells assessed as reduction in cell viability after 48 hrs by Alamar Blue assay; type: cell-based

Guide cases for CC50 at 48 h, answers given:
COMPOUND | CC50 at 48 h
COc1ccc2nccc([C@@H](O)[C@@H]3C[C@@H]4CC[N@@]3C/C4=N/OCC3CC3)c2c1 | > 100 µM
COC(=O)CCCON=C1C[N@]2CC[C@H]1C[C@H]2[C@H](O)c1ccnc2ccc(OC)cc12 | > 100 µM
CC=C1C[N@]2CC[C@H]1C[C@H]2[C@H](O)c1ccnc2ccc(OCC3CC3)cc12 | > 100 µM

Below are 4 compounds. Give each one its CC50 at 48 h.
1. COc1ccc2nccc([C@@H](O)[C@@H]3C[C@@H]4CC[N@@]3CC4=NOCC(F)(F)F)c2c1
2. CC=C1C[N@]2CC[C@H]1C[C@H]2[C@H](O)c1ccnc2ccc(OC)cc12
3. CC=C1C[N@]2CC[C@H]1C[C@H]2[C@H](O)c1ccnc2ccc(OC(C)CO)cc12 (mixture of isomers)
4. CC=C1C[N@]2CC[C@H]1C[C@H]2[C@@H](F)c1ccnc2ccc(OC)cc12

Response:
1. > 100 µM
2. > 100 µM
3. > 100 µM
4. > 100 µM

Below are 6 compounds. Give each one its CC50 at 48 h.
1. CCOc1ccc2nccc([C@@H](O)[C@@H]3C[C@@H]4CCN3C[C@@H]4CC)c2c1 [ETHYLHYDROCUPREINE]
2. CCON=C1C[N@]2CC[C@H]1C[C@H]2[C@H](O)c1ccnc2ccc(OC)cc12
3. CC[C@H]1C[N@]2CC[C@H]1C[C@H]2[C@H](O)c1ccnc2ccc(OC3CCCC3)cc12
4. C#CCON=C1C[N@]2CC[C@H]1C[C@H]2[C@H](O)c1ccnc2ccc(OC)cc12
5. COc1ccc2nccc([C@@H](O)[C@@H]3C[C@@H]4CC[N@@]3CC4=NOCc3ccccc3)c2c1
6. C/C=C1/C[N@]2CC[C@H]1C[C@H]2[C@H](O)c1ccnc2ccc(OC3CCC3)cc12

Response:
1. > 100 µM
2. > 100 µM
3. > 100 µM
4. > 100 µM
5. > 100 µM
6. 65 µM

Below are 7 compounds. Give each one its CC50 at 48 h.
1. CC=C1C[N@]2CC[C@H]1C[C@H]2[C@H](O)c1ccnc2ccc(OCC(F)(F)F)cc12
2. CC[C@H]1CN2CC[C@H]1C[C@H]2[C@H](O)c1ccnc2ccc(OC)cc12 [HYDROQUININE]
3. C=CCOc1ccc2nccc([C@@H](O)[C@@H]3C[C@@H]4CC[N@@]3CC4=CC)c2c1
4. COc1ccc2nccc([C@@H](O)[C@@H]3C[C@@H]4CC[N@@]3C[C@@H]4[C@H](O)CO)c2c1
5. C/C=C1/CN2CC[C@H]1C[C@H]2[C@H](O)c1ccnc2ccc(O)cc12
6. C/C=C1\C[N@]2CC[C@H]1C[C@H]2[C@H](O)c1ccnc2ccc(OC3CCC3)cc12
7. COc1ccc2nccc([C@@H](O)[C@@H]3C[C@@H]4CC[N@@]3C/C4=N/OC3CCCC3)c2c1

Response:
["> 100 µM", "> 100 µM", "54 µM", "> 100 µM", "> 100 µM", "59 µM", "> 100 µM"]

Prompt: Item under review: CC[C@H]1C[N@]2CC[C@H]1C[C@H]2[C@H](O)c1ccnc2ccc(OCC3CC3)cc12 . Reported CC50 at 48 h?
Response: 87 µM
